molecular target: T1, Human PD-1 protein with histidine and avi tags (ACRO Biosystems, PD1-H82E4) (human, UniProt Q15116 25-167); experiment: BLI (Octet Red96e), PD-1 captured on SA sensor, 1:1 local fit
T1 construct: Captured on streptavidin (SA) sensors in the BLI assay; not shown: histidine and avi tags
T1 sequence (Q15116 25-167 limits assumed): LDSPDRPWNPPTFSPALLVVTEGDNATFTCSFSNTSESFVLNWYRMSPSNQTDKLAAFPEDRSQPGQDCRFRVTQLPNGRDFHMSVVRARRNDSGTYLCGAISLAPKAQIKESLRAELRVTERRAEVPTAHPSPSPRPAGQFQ
metric: kon (M⁻¹ s⁻¹)
Field: numeric (M⁻¹ s⁻¹). Do not append units.

# binder, kon / M⁻¹ s⁻¹
measured = [
    ("PR005096 (VHH, Monovalent single-domain (VH) variant of PR002481 with Flag-6His tag) VHH: EVQLVETGGGLIQPGGSLRLSCAASGFNVSSHYMSWVRQAPGKGREWVSIIDGGGSTYYADSVKGRFTISRDNSKNRLYLQMNSLRAEDTAMYYCARATRVPEKGGYNYPFNYWGQGTLVTVSS", 57900),
    ("PR005146 (VHH, Monovalent single-domain (VH) variant of PR002481 with Flag-6His tag) VHH: EVQLVETGGGLIQPGGSLRLSCAASGFNVSFHYMSWVRQAPGKGREWVSIIDGAGSGYYAASVKGRFTISRDNSKNRLYLQMNSLRAEDTAMYYCARATMVREKQGYNYPFNYWGQGTLVTVSS", 593),
]

Recorded result, PR002481 (antibody, human IgG1, V domains shown, Heavy-chain-only antibody (HCAb), human IgG1 Fc; two heavy chains, no light chain; also called R4004P556D1; anti-PD1 R4004P556D1 HCAb hG1) VH: EVQLVETGGGLIQPGGSLRLSCAASGFNVSSHYMSWVRQAPGKGREWVSIIDGGGSTYYADSVKGRFTISRDNSKNRLYLQMNSLRAEDTAMYYCARATAVAEKNGYNYPFNYWGQGTLVTVSS , kon: 9970
